Tested on: 994946-033-R-J1-PDC complex spheroid viability;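 further: spheroids exposed to drugs for 7 days; 100% = DMSO vehicle treated spheroids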
Test: Anticancer human tumor 994946-033-R-J1-PDC patient-derived melanoma cell line growth inhibition [POLQ]
Conditions: second compound 0.316 µM; first compound 0.1 µM; stronger effect = lower value
MEASURED QUANTITY: viability, T/C

{"COMPOUND": "O=c1[nH]cc(F)c(=O)[nH]1 + Cc1cccc(N(C)C(=O)C2C(O)CCN2c2nc(C)cc(C(F)(F)F)c2C#N)c1", "MEASURED QUANTITY": "viability, T/C", "OBS VALUE": "78.7%"}
{"COMPOUND": "COc1cccc(OCCCN)c1-c1cc(Nc2cnc(C#N)cn2)n[nH]1 + Nc1ccc(C#CCN(C(=O)Cc2ncc(C(F)(F)F)cc2C(F)(F)F)c2ccc(F)cc2)nn1", "MEASURED QUANTITY": "viability, T/C", "OBS VALUE": "19.9%"}
{"COMPOUND": "Nc1ccn(C2OC(CO)C(O)C2(F)F)c(=O)n1 (stereo not given) + COC1C(OC(N)=O)C(O)C(Oc2ccc3c(O)c(NC(=O)c4ccc(O)c(CC=C(C)C)c4)c(=O)oc3c2C)OC1(C)C", "MEASURED QUANTITY": "viability, T/C", "OBS VALUE": "7.23%"}
{"COMPOUND": "C=CC(=O)N1CCN(c2nc(=O)n(-c3c(C)ccnc3C(C)C)c3nc(-c4c(O)cccc4F)c(F)cc23)C(C)C1 (stereo not given) + COC1C(OC(N)=O)C(O)C(Oc2ccc3c(O)c(NC(=O)c4ccc(O)c(CC=C(C)C)c4)c(=O)oc3c2C)OC1(C)C", "MEASURED QUANTITY": "viability, T/C", "OBS VALUE": "111%"}
{"COMPOUND": "C=CCn1c(=O)c2cnc(Nc3ccc(N4CCN(C)CC4)cc3)nc2n1-c1cccc(C(C)(C)O)n1 + COC1C(OC(N)=O)C(O)C(Oc2ccc3c(O)c(NC(=O)c4ccc(O)c(CC=C(C)C)c4)c(=O)oc3c2C)OC1(C)C", "MEASURED QUANTITY": "viability, T/C", "OBS VALUE": "102%"}
{"COMPOUND": "CC1COCCN1c1cc(C2(O)CC3CCC(C2)O3)c2cnn(-c3ccn[nH]3)c2n1 (stereo not given) + Nc1ccc(C#CCN(C(=O)Cc2ncc(C(F)(F)F)cc2C(F)(F)F)c2ccc(F)cc2)nn1", "MEASURED QUANTITY": "viability, T/C", "OBS VALUE": "24.9%"}
{"COMPOUND": "CCc1c2c(nc3ccc(O)cc13)-c1cc3c(c(=O)n1C2)COC(=O)[C@]3(O)CC + Cc1cccc(N(C)C(=O)C2C(O)CCN2c2nc(C)cc(C(F)(F)F)c2C#N)c1", "MEASURED QUANTITY": "viability, T/C", "OBS VALUE": "4.13%"}
{"COMPOUND": "CNCc1ccc(-c2[nH]c3cc(F)cc4c3c2CCNC4=O)cc1 + Cc1cccc(N(C)C(=O)C2C(O)CCN2c2nc(C)cc(C(F)(F)F)c2C#N)c1", "MEASURED QUANTITY": "viability, T/C", "OBS VALUE": "115%"}
{"COMPOUND": "Nc1ccn(C2OC(CO)C(O)C2(F)F)c(=O)n1 (stereo not given) + Nc1ccc(C#CCN(C(=O)Cc2ncc(C(F)(F)F)cc2C(F)(F)F)c2ccc(F)cc2)nn1", "MEASURED QUANTITY": "viability, T/C", "OBS VALUE": "10.2%"}
{"COMPOUND": "COc1ccc([C@@H](O)c2cc(-c3ncnc4cc(N5CCOCC5)ccc34)c(F)cc2Cl)nn1 + Cc1cccc(N(C)C(=O)C2C(O)CCN2c2nc(C)cc(C(F)(F)F)c2C#N)c1", "MEASURED QUANTITY": "viability, T/C", "OBS VALUE": "94.1%"}
{"COMPOUND": "CCc1c2c(nc3ccc(O)cc13)-c1cc3c(c(=O)n1C2)COC(=O)[C@]3(O)CC + COC1C(OC(N)=O)C(O)C(Oc2ccc3c(O)c(NC(=O)c4ccc(O)c(CC=C(C)C)c4)c(=O)oc3c2C)OC1(C)C", "MEASURED QUANTITY": "viability, T/C", "OBS VALUE": "5%"}
{"COMPOUND": "C=CC(=O)N1CCN(c2nc(=O)n(-c3c(C)ccnc3C(C)C)c3nc(-c4c(O)cccc4F)c(F)cc23)C(C)C1 (stereo not given) + Cc1cccc(N(C)C(=O)C2C(O)CCN2c2nc(C)cc(C(F)(F)F)c2C#N)c1", "MEASURED QUANTITY": "viability, T/C", "OBS VALUE": "114%"}
{"COMPOUND": "CC[C@@]1(O)C(=O)OCc2c1cc1n(c2=O)Cc2cc3c(CN(C)C)c(O)ccc3nc2-1 + Nc1ccc(C#CCN(C(=O)Cc2ncc(C(F)(F)F)cc2C(F)(F)F)c2ccc(F)cc2)nn1", "MEASURED QUANTITY": "viability, T/C", "OBS VALUE": "17.1%"}
{"COMPOUND": "COc1ccc([C@@H](O)c2cc(-c3ncnc4cc(N5CCOCC5)ccc34)c(F)cc2Cl)nn1 + Nc1ccc(C#CCN(C(=O)Cc2ncc(C(F)(F)F)cc2C(F)(F)F)c2ccc(F)cc2)nn1", "MEASURED QUANTITY": "viability, T/C", "OBS VALUE": "111%"}
{"COMPOUND": "CCc1cc2c(N3CCc4c(cc(Cn5ccnc5)cc4-c4cn(C)nc4C(F)(F)F)C3=O)cc(C)nc2c(OC)n1 + COC1C(OC(N)=O)C(O)C(Oc2ccc3c(O)c(NC(=O)c4ccc(O)c(CC=C(C)C)c4)c(=O)oc3c2C)OC1(C)C", "MEASURED QUANTITY": "viability, T/C", "OBS VALUE": "90.2%"}
{"COMPOUND": "O=C(Nc1ccc(O)c(NS(=O)(=O)c2ccc(F)cc2)c1)c1ccc(-c2ccccc2)cc1 + Nc1ccc(C#CCN(C(=O)Cc2ncc(C(F)(F)F)cc2C(F)(F)F)c2ccc(F)cc2)nn1", "MEASURED QUANTITY": "viability, T/C", "OBS VALUE": "134%"}
{"COMPOUND": "COc1ccc([C@@H](O)c2cc(-c3ncnc4cc(N5CCOCC5)ccc34)c(F)cc2Cl)nn1 + COC1C(OC(N)=O)C(O)C(Oc2ccc3c(O)c(NC(=O)c4ccc(O)c(CC=C(C)C)c4)c(=O)oc3c2C)OC1(C)C", "MEASURED QUANTITY": "viability, T/C", "OBS VALUE": "107%"}
{"COMPOUND": "CNCc1ccc(-c2[nH]c3cc(F)cc4c3c2CCNC4=O)cc1 + Nc1ccc(C#CCN(C(=O)Cc2ncc(C(F)(F)F)cc2C(F)(F)F)c2ccc(F)cc2)nn1", "MEASURED QUANTITY": "viability, T/C", "OBS VALUE": "86.4%"}
{"COMPOUND": "O=C(Nc1ccc(O)c(NS(=O)(=O)c2ccc(F)cc2)c1)c1ccc(-c2ccccc2)cc1 + COC1C(OC(N)=O)C(O)C(Oc2ccc3c(O)c(NC(=O)c4ccc(O)c(CC=C(C)C)c4)c(=O)oc3c2C)OC1(C)C", "MEASURED QUANTITY": "viability, T/C", "OBS VALUE": "123%"}
{"COMPOUND": "COc1cccc2c1C(=O)c1c(O)c3c(c(O)c1C2=O)CC(O)(C(=O)CO)CC3OC1CC(N)C(O)C(C)O1 (stereo not given) + COC1C(OC(N)=O)C(O)C(Oc2ccc3c(O)c(NC(=O)c4ccc(O)c(CC=C(C)C)c4)c(=O)oc3c2C)OC1(C)C", "MEASURED QUANTITY": "viability, T/C", "OBS VALUE": "8.65%"}
